tested on: Bacillus subtilis; test: cleaved RNA product abundance (RNA/gDNA barcode ratio) relative to median wild-type variant (ratio to wild type); higher = more accumulation of the downstream cleavage product; conditions: experiment (reporter, strain, medium): exp 4a: truncated aprE reporter, strain BJT201 with 2% xylose (RNase J1 expressed); cleavage site: cggR-gapA (positions -7 to +36 mutated)
Property: cleaved RNA product abundance; scope: individual sequences

{"columns": ["sequence content", "cleaved RNA product abundance"],
 "data": [
  ["ACAGACGAAGGAGCCGCAAAGAAGTTATTAAGGAATGAATAATCCCTCAATATAAAGATCTCTCACTTATTTAAA", 0.0766],
  ["ACAGACGAAGGAGCCGCAAAGAAGTTATTAAGGGATGGATAATCCCTCGATATAAATATCTCTCACTTATTTAAA", 0.235],
  ["ACAGACGAAGGAGCCGCAAAGAAGTTATTAAGGAATGAATAATCCCTCAATATAAAAAACTCTCACTTATTTAAA", 0.0884],
  ["ACAGACGAAGGAGCCGCAAAGAAATTATTCAGGGATGAATAATCCCTCAATATAAATATCTCTCACTTATTTAAA", 0.747],
  ["ACAGACGAAGGAGCCGCCAAGAAGTTATTAAGGGATGAATAATCCCTTAATATAAATATCTCTCACTTATTTAAA", 0.305],
  ["ACAGACGAAGGAGCCGCAAAGAATTTATTAAGGGATGAATAATCCCTCAATATAAATAACTCTCACTTATTTAAA", 0.544],
  ["ACAGACGAAGGAGCCGCATAGAAGTTATTAAGGGATGAATAATGCCTCAATATAAATATCTCTCACTTATTTAAA", 0.141],
  ["ACAGACGAAGGAGCCGCAAAGAACTTATTAAGGGATGAATGATCCCTCAATATAAATATCTCTCACTTATTTAAA", 0.282],
  ["ACAGACGAAGGAGCCGCAAAGAAGTTATTAACGGATGAATAATCCCTCAATATAAAAATCTCTCACTTATTTAAA", 0.116],
  ["ACAGACGAAGGAGCCGCAAAGAAGTTATTAAGGGATCAATAATCCCTCAACATAAATATCTCTCACTTATTTAAA", 0.258],
  ["ACAGACGAAGGAGCCGCAAAGAAGTTATTAAGGGATGAACAATGCCTCAATATAAATATCTCTCACTTATTTAAA", 0.136],
  ["ACAGACGAAGGAGCCGCAAAGAAGTTATTAAGGGATGAATAATCCCTCAAAATAAAAATCTCTCACTTATTTAAA", 0.393],
  ["ACAGACGAAGGAGCCGCAAAGAAGTTATTAAGGGATGAAAAATCCCTCTATATAAATATCTCTCACTTATTTAAA", 0.535],
  ["ACAGACGAAGGAGCCGCAAAGAAGTTATTAAGGGATGAATAATCACTCAATATAAATTTCTCTCACTTATTTAAA", 0.112],
  ["ACAGACGAAGGAGCCGCAGAGAAGTTATTAAGGGATGAATAATCCATCAATATAAATATCTCTCACTTATTTAAA", 0.178],
  ["ACAGACGAAGGAGCCGCAAAGAAGTTATTAAAGTATGAATAATCCCTCAATATAAATATCTCTCACTTATTTAAA", 0.124],
  ["ACAGACGAAGGAGCCGCAAATAAGTTATTAAGTGATGAATAATCCCTCAATATAAATATCTCTCACTTATTTAAA", 0.107],
  ["ACAGACGAAGGAGCCGCAAAGAAGTTAATAAGGGATGAATAATCCCTCAACATAAATATCTCTCACTTATTTAAA", 0.342],
  ["ACAGACGAAGGAGCCGCAAAGAAGTTAATAATGGATGAATAATCCCTCAATATAAATATCTCTCACTTATTTAAA", 0.137],
  ["ACAGACGAAGGAGCCGCAAAGAAGTTATTAAGGGATGTAGAATCCCTCAATATAAATATCTCTCACTTATTTAAA", 0.768],
  ["ACAGACGAAGGAGCCGCAAAGAAGTTATTAAGGGATGAATTATCCCTAAATATAAATATCTCTCACTTATTTAAA", 0.433],
  ["ACAGACGAAGGAGCCGCAAAGAAGTTATTTAGGGATGAATAATCCCTCAATACAAATATCTCTCACTTATTTAAA", 0.0541],
  ["ACAGACGAAGGAGCCGCACAGAAGTTATTAAGGGATGAATAATCCCTCAACATAAATATCTCTCACTTATTTAAA", 0.294],
  ["ACAGACGAAGGAGCCGCAAAGAAGTTATTAAGCAATGAATAATCCCTCAATATAAATATCTCTCACTTATTTAAA", 0.122],
  ["ACAGACGAAGGAGCCGCAAAGAAATTATTAAGGGATGAATAATCCCTCAAAATAAATATCTCTCACTTATTTAAA", 0.365],
  ["ACAGACGAAGGAGCCGCAAAAAAGTTATTAGGGGATGAATAATCCCTCAATATAAATATCTCTCACTTATTTAAA", 0.608],
  ["ACAGACGAAGGAGCCGCAAAGAAGTTATTAAGGGATGAATAATTCCTCACTATAAATATCTCTCACTTATTTAAA", 0.156],
  ["ACAGACGAAGGAGCCGCAAAGACGTTATTAAGGGATGAATAATCCGTCAATATAAATATCTCTCACTTATTTAAA", 0.192],
  ["ACAGACGAAGGAGCCGCAAAGCAGTTATTAAGTGATGAATAATCCCTCAATATAAATATCTCTCACTTATTTAAA", 0.0809],
  ["ACAGACGAAGGAGCCGCAAAGAAGTTATTAAAGGATAAATAATCTCTCAATATAAATATCTCTCACTTATTTAAA", 0.112]
]}

====

test system: Bacillus subtilis; test: cleaved RNA product abundance (RNA/gDNA barcode ratio) relative to median wild-type variant (ratio to wild type); higher = more accumulation of the downstream cleavage product; conditions: experiment (reporter, strain, medium): exp 4a: truncated aprE reporter, strain BJT201 with 2% xylose (RNase J1 expressed); cleavage site: cggR-gapA (positions -7 to +36 mutated)
metric: cleaved RNA product abundance

{"columns": ["sequence content", "system name", "endpoint value"],
 "data": [
  ["ACAGACGAAGGAGCCGCAAAGAAGTTATTAAAGGATGAATAATCCTTCAATATAAATATCTCTCACTTATTTAAA", "Bacillus subtilis", 0.86],
  ["ACAGACGAAGGAGCCGCAAATAAGTTATTCAGGGATGAATAATCCCTCAATATAAATATCTCTCACTTATTTAAA", "Bacillus subtilis", 1.09],
  ["ACAGACGAAGGAGCCGCATAGAAGTTATTAAGGGATGAATAATACCTCAATATAAATATCTCTCACTTATTTAAA", "Bacillus subtilis", 0.179],
  ["ACAGACGAAGGAGCCGCTAAGAAGTTATTAAGGTATGAATAATCCCTCAATATAAATATCTCTCACTTATTTAAA", "Bacillus subtilis", 0.296]
]}

====

test system: Bacillus subtilis; assay: cleaved RNA product abundance (RNA/gDNA barcode ratio) relative to median wild-type variant (ratio to wild type); higher = more accumulation of the downstream cleavage product; settings: experiment (reporter, strain, medium): exp 8a: truncated aprE reporter, strain BJT201 with 2% xylose (RNase J1 expressed); cleavage site: glnRA (positions -5 to +31 mutated)
Property: cleaved RNA product abundance; scope: individual sequences
metric: cleaved RNA product abundance

{"columns": ["sequence content", "system name", "endpoint value"],
 "data": [
  ["CGACATGTCCCGCTTCTTTCATTAATCGGTTAGCAACTGTTTTGCTATCTACATTTACCTTTTAAGAGGAGGAAT", "Bacillus subtilis", 0.132],
  ["CGACATGTCCCGCTTCTTTCATTAATCCGTTAGCTACTGTTTTGCTATATATATTTACCTTTTAAGAGGAGGAAT", "Bacillus subtilis", 0.617],
  ["CGACATGTCCCGCTTCTTTCATTAATCCGTTAACAATTGTTTTGCTATATACATTTACCTTTTAAGAGGAGGAAT", "Bacillus subtilis", 0.241],
  ["CGACATGTCCCGCTTCTTTCATTACTCCGTTAGCAACTGTTTTGCTATATACATTCACCTTTTAAGAGGAGGAAT", "Bacillus subtilis", 0.658],
  ["CGACATGTCCCGCTTCTTTCATTAATCCGTTCGCAATTGTTTTGCTATATACATTTACCTTTTAAGAGGAGGAAT", "Bacillus subtilis", 0.31],
  ["CGACATGTCCCGCTTCTTTCATTAATCCGTTAGTAACTGTTTTGCTATATACACTTACCTTTTAAGAGGAGGAAT", "Bacillus subtilis", 0.527],
  ["CGACATGTCCCGCTTCTTTCATTATTCCGTTAGCAACTGTTTTACTATATACATATACCTTTTAAGAGGAGGAAT", "Bacillus subtilis", 0.607],
  ["CGACATGTCCCGCTTCTTTCATTAGTCCGTTACCAACTGTTTTGCTATATACATTTACCTTTTAAGAGGAGGAAT", "Bacillus subtilis", 0.248],
  ["CGACATGTCCCGCTTCTTTCATTAATCCGTTAGCAACTGTTCTGCTATATACATGTACCTTTTAAGAGGAGGAAT", "Bacillus subtilis", 0.386],
  ["CGACATGTCCCGCTTCTTTCATTAATCCGTTAGCAACTGTTTTGCCATATACATTTACATTTTAAGAGGAGGAAT", "Bacillus subtilis", 0.355],
  ["CGACATGTCCCGCTTCTTTCATTAATACGTTTGCAACTGTTTTGCTATATACATTTACCTTTTAAGAGGAGGAAT", "Bacillus subtilis", 0.769],
  ["CGACATGTCCCGCTTCTTTCATTAATCCGTTAGGAACTGTCTTGCTATATACATTTACCTTTTAAGAGGAGGAAT", "Bacillus subtilis", 0.138],
  ["CGACATGTCCCGCTTCTTTCATTAATCCCTTAGCAACTGTTTTGCTAAATACATTTACCTTTTAAGAGGAGGAAT", "Bacillus subtilis", 0.149],
  ["CGACATGTCCCGCTTCTTTCATTAATCCGATCGCAACTGTTTTGCTAGATACATTTACCTTTTAAGAGGAGGAAT", "Bacillus subtilis", 0.119],
  ["CGACATGTCCCGCTTCTTTCATTAATCCGTTAGCACCTGTTTTGCTATATACAATTACCTTTTAAGAGGAGGAAT", "Bacillus subtilis", 0.867]
]}
